Hey, just so you know, these numbers are from PubChem BioAssay AID1159580.

Experiment: chemical genetic growth profiling, strain panel (AID 1159580);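 note: tested at 20 µM; growth read once vehicle control cultures reached saturation at 30 °C; lower values mean less growth of the strain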
Conditions: S. cerevisiae deletion strains, growth OD, locus YHR079C, strain IRE1
Out of some 5,500 compounds screened, about 2,000 (36%) were called active. Inconclusive results (about 18%) are left out. Cut-off read from the data, not from the text of the source: active = normalized growth mostly below about 0.91 (no sharp cut-off); inconclusive = no clear call, values can overlap the other calls; inactive = mostly above about 0.92. The list shows a part of the results.
Answer with one of the outcomes given here: active, inactive

Prompt: Any idea what this test logged for O=C(NCc1ccco1)c1csc(C2COc3ccccc3O2)n1 (configuration not stated) ?
Completion: inactive

Prompt: Any idea what this test logged for Cc1ccc(C(C)C)cc2c(C)ccc1-2 ?
Completion: inactive

Prompt: Any idea what this test logged for O=C(Nc1ccccn1)c1cc(-c2ccccc2)c(C(F)(F)F)s1 ?
Completion: inactive

Prompt: Any idea what this test logged for N[C@@H](CCC(=O)N[C@@H](CCSC(CC(=O)O)C(=O)O)C(=O)NCC(=O)O)C(=O)O (some centres not stated) ?
Completion: inactive

Prompt: Any idea what this test logged for Cc1cc(C(=O)O/N=C(/N)c2ccc(C(C)(C)C)cc2)no1 ?
Completion: inactive

Prompt: Any idea what this test logged for COc1cc(C(=O)Oc2c(Cl)cc(Cl)cc2C=Nc2ccc([N+](=O)[O-])cc2C#N)cc(OC)c1OC ?
Completion: active

Prompt: Any idea what this test logged for COCCOc1ccccc1NC(=S)SCCSC(=S)Nc1ccccc1OCCOC ?
Completion: inactive

Prompt: Any idea what this test logged for COc1ccc(/C=C/C(=O)O)cc1OC ?
Completion: inactive

Prompt: Any idea what this test logged for CCCCCCCC1CCC/C1=N/OC(=O)c1cccs1 (configuration not stated) ?
Completion: inactive

Prompt: Any idea what this test logged for CCN(CC)CCOC(=O)C(Cc1cccc2ccccc12)CC1CCCO1 (configuration not stated) ?
Completion: inactive

Prompt: Any idea what this test logged for NCc1ccc(S(N)(=O)=O)cc1 ?
Completion: inactive

Prompt: Any idea what this test logged for Oc1ccc(/C=C/c2cc(O)cc(O)c2)cc1 ?
Completion: inactive

Prompt: Any idea what this test logged for CC(=O)O[C@H]1C[C@@H](OC(C)=O)C(C)(C)C2C[C@@H](OC(C)=O)[C@]3(C)C(CC[C@@]4(C)[C@H](c5ccoc5)C(=O)[C@H]5O[C@]543)[C@]21C (some centres not stated) ?
Completion: inactive

Prompt: Any idea what this test logged for COc1ccc(/C=C/C(=O)c2cc(O)ccc2O)cc1 ?
Completion: active

Prompt: Any idea what this test logged for CC(COc1ccccc1)N(CCCl)Cc1ccccc1 (configuration not stated) ?
Completion: inactive

Prompt: Any idea what this test logged for Cc1cccc(CN2CCN(C(c3ccccc3)c3ccc(Cl)cc3)CC2)c1 (configuration not stated) ?
Completion: inactive

Prompt: Any idea what this test logged for CCCN(CCC)CCc1cccc2c1CC(=O)N2 ?
Completion: inactive

Prompt: Any idea what this test logged for COc1ccccc1C(C[N+](=O)[O-])c1c(N)n(C)c(=O)n(C)c1=O (configuration not stated) ?
Completion: active

Prompt: Any idea what this test logged for COc1cc(C(=O)Oc2c(Cl)cc(Cl)cc2C=Nc2cccc(C(F)(F)F)c2)cc(OC)c1OC ?
Completion: active

Prompt: Any idea what this test logged for CC1=CC(=O)CC(C)(C)C1(O)/C=C/C(C)=C\C(=O)O (configuration not stated) ?
Completion: inactive

Prompt: Any idea what this test logged for C[C@@H]1CC2C3CCC4=CC(=O)C=C[C@]4(C)[C@@]3(F)[C@@H](O)C[C@]2(C)[C@@]1(O)C(=O)COP(=O)(O)O (some centres not stated) ?
Completion: inactive

Prompt: Any idea what this test logged for O=C(Nc1cccc(C(F)(F)F)c1)Oc1ccc(F)cc1Cl ?
Completion: inactive

Prompt: Any idea what this test logged for CCOC(=O)NC(=S)NC12CC3CC(CC(C3)C1)C2 ?
Completion: inactive

Prompt: Any idea what this test logged for CCCNC(C)C(=O)Nc1ccccc1C (configuration not stated) ?
Completion: inactive

Prompt: Any idea what this test logged for COc1ccccc1OCC(O)CN1CCN(CC(=O)Nc2c(C)cccc2C)CC1 (configuration not stated) ?
Completion: inactive

Prompt: Any idea what this test logged for O=c1ccn([C@@H]2O[C@H](COP(=O)(O)OP(=O)(O)OP(=O)(O)O)[C@@H](O)[C@H]2O)c(=O)[nH]1 ?
Completion: inactive

Prompt: Any idea what this test logged for N=C(N)SCc1nc(-c2ccc(Cl)cc2)no1 ?
Completion: inactive

Prompt: Any idea what this test logged for CCOC(=O)c1c(N=Cc2cc(Br)c(Br)cc2O)sc2c1CCCC2 ?
Completion: active

Prompt: Any idea what this test logged for NC(=NC(=O)c1ccc(Cl)cc1)c1cccs1 ?
Completion: inactive

Prompt: Any idea what this test logged for C[C@H](COc1ccccc1)N[C@H](C)[C@H](O)c1ccc(O)cc1 ?
Completion: inactive

Prompt: Any idea what this test logged for OC/C=C/c1ccc(O)c(O)c1 ?
Completion: inactive

Prompt: Any idea what this test logged for CC[C@]1(O)CC2CN(CCc3c([nH]c4ccccc34)[C@@](C(=O)OC)(c3cc4c(cc3OC)N(C=O)[C@H]3[C@@](O)(C(=O)OC)[C@H](OC(C)=O)[C@]5(CC)C=CCN6CC[C@]43[C@@H]65)C2)C1 (some centres not stated) ?
Completion: inactive

Prompt: Any idea what this test logged for CC(=O)OCC(=O)[C@@]12OC(C)(C)O[C@@H]1CC1C3C[C@H](F)C4=CC(=O)C=C[C@]4(C)[C@@]3(F)[C@@H](O)C[C@@]12C (some centres not stated) ?
Completion: inactive

Prompt: Any idea what this test logged for COC(=O)[C@H]1[C@H]2C[C@@H]3c4[nH]c5cc(OC)ccc5c4CCN3C[C@H]2C[C@@H](OC(=O)c2cc(OC)c(OC)c(OC)c2)[C@@H]1OC ?
Completion: inactive

Prompt: Any idea what this test logged for C#CCN(C)C(C)Cc1ccccc1 (configuration not stated) ?
Completion: inactive

Prompt: Any idea what this test logged for CN(Cc1cc(Br)cc(Br)c1N)C1CCCCC1 ?
Completion: inactive

Prompt: Any idea what this test logged for CC12CCC(CC1)C(C)(C)O2 ?
Completion: inactive

Prompt: Any idea what this test logged for C[C@@H]1C[C@@H]([C@H](O)CC2CC(=O)NC(=O)C2)C(=O)[C@@H](C)C1 ?
Completion: active

Prompt: Any idea what this test logged for Clc1ccc(-c2noc(CSC3=NCCN3)n2)cc1 ?
Completion: inactive

Prompt: Any idea what this test logged for O=C1CN(/N=C\c2ccc([N+](=O)[O-])o2)C(=O)N1 ?
Completion: inactive

Prompt: Any idea what this test logged for COc1cc(/C=C/C(=O)O)cc(OC)c1OC ?
Completion: inactive

Prompt: Any idea what this test logged for CCCC1c2ccsc2CCN1C(=S)Nc1ccc(Cl)cc1Cl (configuration not stated) ?
Completion: inactive
